- Test system: Staphylococcus saprophyticus
- test-summary: Antibacterial activity against Staphylococcus saprophyticus ATCC BAA 750 after 24 hrs
- Assay type: functional
- test-conditions: ATCC BAA 750, 24 h
Positions of bridges follow the written chain, without caps; N, C: chain ends. Non-standard residues stand in square brackets, D forms with d. Residues, ends and D or L forms follow the SMILES beside them. dNMeF = CN[C@H](Cc1ccccc1)C(=O)O
Attribute: MIC

Consider the following illustrative entries.
CC[C@@H](C)[C@@H](NC(=O)[C@@H](CCC(N)=O)NC(=O)[C@H](CO)NC(=O)[C@@H](NC(=O)[C@@H](Cc1ccccc1)NC)[C@@H](C)CC)C(=O)N[C@H](C(=O)N[C@@H](CO)C(=O)N[C@H]1C(=O)N[C@@H](CCCNC(=N)N)C(=O)N[C@@H]([C@@H](C)CC)C(=O)N[C@@H]([C@@H](C)CC)C(=O)O[C@H]1C)[C@@H](C)CC = < 0.0625 µg/mL
CC[C@@H](C)[C@@H](NC(=O)[C@@H](CCCNC(=N)N)NC(=O)[C@H](CO)NC(=O)[C@@H](NC(=O)[C@@H](Cc1ccccc1)NC)[C@@H](C)CC)C(=O)N[C@H](C(=O)N[C@@H](CO)C(=O)N[C@H]1C(=O)N[C@@H](CCCNC(=N)N)C(=O)N[C@@H](CC(C)C)C(=O)N[C@@H]([C@@H](C)CC)C(=O)O[C@H]1C)[C@@H](C)CC (H-[dNMeF]IS[dR][dI]IS[dT]RLI; ester 8-C) = < 0.0625 µg/mL

Form field MIC, entry CC[C@@H](C)[C@@H](NC(=O)[C@@H](CCC(N)=O)NC(=O)[C@H](CCCNC(=N)N)NC(=O)[C@@H](NC(=O)[C@@H](Cc1ccccc1)NC)[C@@H](C)CC)C(=O)N[C@H](C(=O)N[C@@H](CO)C(=O)N[C@H]1C(=O)N[C@@H](CCCNC(=N)N)C(=O)N[C@@H](CC(C)C)C(=O)N[C@@H]([C@@H](C)CC)C(=O)O[C@H]1C)[C@@H](C)CC (H-[dNMeF]IR[dQ][dI]IS[dT]RLI; ester 8-C) : < 0.0625 µg/mL

// CC[C@@H](C)[C@@H](NC(=O)[C@@H](CCC(N)=O)NC(=O)[C@H](CO)NC(=O)[C@@H](NC(=O)[C@@H](Cc1ccccc1)NC)[C@@H](C)CC)C(=O)N[C@H](C(=O)N[C@@H](CO)C(=O)N[C@H]1C(=O)N[C@@H](CCCNC(=N)N)C(=O)N[C@@H](CC(C)C)C(=O)N[C@@H]([C@@H](C)CC)C(=O)O[C@H]1C)[C@@H](C)CC (H-[dNMeF]IS[dQ][dI]IS[dT]RLI; ester 8-C) : MIC value = < 0.0625 µg/mL

So, CC[C@@H](C)[C@@H](NC(=O)[C@@H](CCCNC(=N)N)NC(=O)[C@H](CCCNC(=N)N)NC(=O)[C@@H](NC(=O)[C@@H](Cc1ccccc1)NC)[C@@H](C)CC)C(=O)N[C@H](C(=O)N[C@@H](CO)C(=O)N[C@H]1C(=O)N[C@@H](CCCNC(=N)N)C(=O)N[C@@H](CC(C)C)C(=O)N[C@@H]([C@@H](C)CC)C(=O)O[C@H]1C)[C@@H](C)CC (H-[dNMeF]IR[dR][dI]IS[dT]RLI; ester 8-C) ? Its MIC was < 0.0625 µg/mL
